Just for reference, patent US20240366602A1 is where these values come from.

# test.name: Phase 1 study BGE-105-101 Part A (SAD) pharmacokinetics after IV infusion
# Assay type: in vivo, human
# assay.conditions: Mean; SAD1 (60 mg/360 mg) Day 1; unit assumed
# Method: In Part A, of 24 subjects enrolled (3 SAD cohorts, 8 subjects each), a total of at least 12 subjects are ≥65 years of age (≥4 subjects in each cohort). The remaining subjects are ≥18 years old. After a baseline period of 24 hours in the clinic, all subjects receive a LD, 1-hour infusion on Day 1. […] On Day 1 for Part A, subjects receive LD, 1-hour infusion. […] AEs was recorded from the start time of the first BGE-105 or placebo study drug infusion until the end of the subject's participation in the study. […]
attribute.measured: Dose-normalized Cmax
Write the figure, then the unit, nothing else.

Query block: Given "COc1cccc(OC)c1-n1c(NS(=O)(=O)[C@@H](C)[C@H](C)c2ncc(C)cn2)nnc1-c1cncc(C)c1" , state its recorded Dose-normalized Cmax.
Result block: 0.12 µg/mL/mg
